Hey, just so you know, these numbers are from PubChem BioAssay (NCI).

# System: ACHN renal
# experiment.summary: NCI-60 one-dose screen, 48 h (100 = growth as untreated, 0 = no growth, -100 = all killed)
# condition: 10 µM unless noted
This is part of a sample that, as a whole, favours compounds with a hit. Of some 83,000 tested, about 20% had one in any assay.
Binary label based on growth with cut-off 30%: below gives 1, not below gives 0.

* COc1cccc(-c2nc3sccn3c2-c2ccnc(NCCCNS(=O)(=O)c3ccc(Cl)cc3)c2)c1 | 0
* CCOC(=O)c1ccc2c(c1)nc(/C=C/c1ccc(Cl)cc1)n2-c1cc(C(C)(C)C)[nH]n1 | 1
* Cc1ccc2c(c1)n([O-])c1cc(Cl)ccc1[n+]2=O | 0
* COc1ccc2nc3cc(Cl)ccc3c(NCCNCC(O)CO)c2c1 (stereo not given) | 1
* COc1ccc(C(=O)/C=C/c2c[n+](=O)c3ccc(F)cc3n2[O-])cc1 | 0
* CCCCCCCCCCCCN1CCCC(C)C1 (stereo not given) | 0
* C=C1CCC2C3(C)COC(c4ccc(SC)cc4)OC3CCC2(C)C1C/C=C1/C(=O)OCC1O (stereo not given) | 0
* CCCCCCCCCCCCNC(=O)[C@H]1CSC(c2ccc(OC)c(F)c2)N1 (stereo not given in full) | 1
* COC(=S)SCN(CSC(=S)OC)c1ccc(Cl)cc1 | 0
* COC(=O)[C@H](C(C)C)n1c(=O)c2cc(OC)c(OC)cc2c2cnc3[nH]ccc3c21 | 0
* COc1cc(/C=N\NC(=O)CN2CCN(c3cc4c(cc3F)c(=O)c(C(=O)N/N=C/c3ccc(O)c(OC)c3)cn4C3CC3)CC2)ccc1O | 0
* COc1ccc(/C=C2\N=C3SC=C(N)N3C2=O)cc1 | 0
* CCN(CC)CC(O)CNc1c2ccc([N+](=O)[O-])cc2nc2cc(OC)c(OC)cc12 (stereo not given) | 1
* COc1cnc2c(c1)C(=O)c1c-2n(CCCN2CCN(C)CC2)c(=O)c2cc([N+](=O)[O-])ccc12 | 1
* COc1cc(/C=C2\CN(C(=O)CCN3CCC(=NO)CC3)C/C(=C\c3cc(OC)c(OC)c(OC)c3)C2=O)cc(OC)c1OC | 1
* CCCC(=O)Oc1ccc(/C(=C(/CC)Cc2ccccc2)c2ccc(OCCN3CCCC3)cc2)cc1 | 0
* CN(C)c1ccc(/C=C\C2=[N+](C)c3ccccc3C2(C)C)cc1 | 1
* O=c1[nH]c(-c2ccccn2)nc2sc3c(c12)CCCCC3 | 0
* O=C(O)c1cccc2c1-c1ccccc1C2=O | 0
* COc1ccc(S(=O)(=O)NCCCNc2nccc(-c3c(-c4cccc(N)c4)nc4sccn34)n2)cc1 | 0
